Would you kindly list self-aminoacylation for each of these sequences?
Test system: biotinyl-Ile-oxazolone
ASSAY SUMMARY: self-aminoacylation, catalytic enhancement (BIO) (fold over background); higher = more active; k-Seq, kA / k0A0; sequences stand for … in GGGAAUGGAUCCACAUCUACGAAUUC…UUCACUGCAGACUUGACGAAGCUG
Fewer inactive variants are shown than the library holds.
Give the value as a plain number.

Query string: Can you look up the measured self-aminoacylation of AUUCAUCUAGGUCAUCGGGUG [Fam2.2 aminoacylation ribozyme variant] for me?
Result string: 4.88

Query string: # self-aminoacylation lookup, item CUACUUCAGACAAUCGGUGUG [Fam1A.1 aminoacylation ribozyme variant]
Result string: 1.23

Query string: // query self-aminoacylation value for entry CCGCACUACAAGCAAUCGGUC [Fam1B.1 aminoacylation ribozyme variant]
Result string: 1.33

Query string: # get_value(readout='self-aminoacylation', item= CAGUUUGCUAAUAGUCGCCAG [Fam3.1 aminoacylation ribozyme variant] )
Result string: 1.86

Query string: Recorded self-aminoacylation for AUAACCCUGGUGAUCGAGUGA [Fam2.1 aminoacylation ribozyme variant] , please?
Result string: 3.03

Query string: Return reported self-aminoacylation; argument: AUUACCCUGGCCAUCUAGUGA [Fam2.1 aminoacylation ribozyme variant]
Result string: 2.93

Query string: self-aminoacylation for AUGUUUGCUGAUAGUCGCAAG [Fam3.1 aminoacylation ribozyme variant] ?
Result string: 1.81

Query string: So what's the measured self-aminoacylation for this one? AUUCCCCUGGUCAUCUAGUGA [Fam2.1 aminoacylation ribozyme variant]
Result string: 5.92

Query string: Quick check: self-aminoacylation of AUUGCCCUAGUCAUCGAGUGA [Fam2.1 aminoacylation ribozyme variant] ?
Result string: 2.73

---

Test system: biotinyl-Leu-oxazolone
ASSAY SUMMARY: self-aminoacylation, catalytic enhancement (BLO) (fold over background); higher = more active; k-Seq, kA / k0A0; sequences stand for … in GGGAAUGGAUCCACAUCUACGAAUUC…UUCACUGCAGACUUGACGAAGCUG
Variants at the floor of the assay were thinned out.
# self-aminoacylation binned as lo: < 1; med: ≥ 1 and < 5; hi: ≥ 5

Query string: Determine which band this sequence sits in: AUUCACCUAGGUCGACGGGUG [Fam2.2 aminoacylation ribozyme variant]
Result string: med

Query string: Could you tell me which band CUACUUCAAAUACUCGGUCUG [Fam1A.1 aminoacylation ribozyme variant] belongs to?
Result string: lo

Query string: Bin this entry: AUUAUCCUGAUCAUCGAGUGA [Fam2.1 aminoacylation ribozyme variant]
Result string: hi

Query string: # classify by self-aminoacylation band: AUCACCCUGGUCAUCGCGUGA [Fam2.1 aminoacylation ribozyme variant]
Result string: hi

Query string: Dear colleague, I would appreciate it if you could identify the bin for AUUCAGCUAGGUCAUAGGGUG [Fam2.2 aminoacylation ribozyme variant] and reply at your convenience.
Result string: med

Query string: Category lookup for the sequence CUACUUCAACCAAUCGGCCUG [Fam1A.1 aminoacylation ribozyme variant]
Result string: med

Query string: Which band does AUUACCCUGAACAUCGAGUGA [Fam2.1 aminoacylation ribozyme variant] fall in?
Result string: hi

Query string: Using the reported self-aminoacylation, which band applies to UUUCAACUAGGUCAUCGGGUG [Fam2.2 aminoacylation ribozyme variant] ?
Result string: hi

Query string: Sort into band: AUUGGCCUAGGUCAUCGGGUG [Fam2.2 aminoacylation ribozyme variant]
Result string: hi

Query string: Tag the class for GUACUUCAACCAAUCGGUCUG [Fam1A.1 aminoacylation ribozyme variant]
Result string: med

Query string: The entry to classify is AUUACGCUGGUCGUCGAGUGA [Fam2.1 aminoacylation ribozyme variant] ; which class holds it?
Result string: med

Query string: Could you place AAGUUUGCUAAUAGUUGGAAG [Fam3.1 aminoacylation ribozyme variant] in its proper category? Many thanks.
Result string: med

Query string: Which bin should I file CUACUGUAAACAAUCGGUCUG [Fam1A.1 aminoacylation ribozyme variant] under?
Result string: lo

Query string: Textbook exercise: identify the category of the sequence given here, CUACUUCGAACAAUCCGUCUG [Fam1A.1 aminoacylation ribozyme variant] , according to its measured value.
Result string: lo

Query string: Which class is correct for the following sequence? GUUACCCUGGUCAUCGAGGGA [Fam2.1 aminoacylation ribozyme variant]
Result string: med

Query string: Consider AAGUUUGCUAAUACUCGCUAG [Fam3.1 aminoacylation ribozyme variant] . To which self-aminoacylation class does it belong?
Result string: lo

Query string: Hey, which category is GUGCACCUAGGUCAUCGGGUG [Fam2.2 aminoacylation ribozyme variant] in, do you know?
Result string: med

---

System: biotinyl-Phe-oxazolone
ASSAY SUMMARY: self-aminoacylation, catalytic enhancement (BFO) (fold over background); higher = more active; k-Seq, kA / k0A0; sequences stand for … in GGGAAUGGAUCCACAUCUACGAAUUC…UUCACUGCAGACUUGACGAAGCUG
Variants at the floor of the assay were thinned out.
Hi there, I'd appreciate the recorded self-aminoacylation for every entry that follows.
// no unit string in output, number only

Query string: Request body: readout self-aminoacylation, system biotinyl-Phe-oxazolone, query GAGUUUGCUACUAGUCGCAAG [Fam3.1 aminoacylation ribozyme variant] . Return the value.
Result string: 1.59

Query string: // fetch biotinyl-Phe-oxazolone self-aminoacylation for AUUCCCCUGGCCAUCGAGUGA [Fam2.1 aminoacylation ribozyme variant]
Result string: 46.6

Query string: Query the reported self-aminoacylation for biotinyl-Phe-oxazolone; item: CCACAGUUCAGGCAAUCGGUC [Fam1B.1 aminoacylation ribozyme variant]
Result string: 8.63

Query string: Item CCACACAUCAAUCAAUCGGUC [Fam1B.1 aminoacylation ribozyme variant] with biotinyl-Phe-oxazolone - self-aminoacylation?
Result string: 2.22

Query string: Item: AUUCACAUAGGUGAUCGGGUG [Fam2.2 aminoacylation ribozyme variant] Test system: biotinyl-Phe-oxazolone Read-out: self-aminoacylation Value: ?
Result string: 20.5

Query string: Provide value of self-aminoacylation for this record tested with biotinyl-Phe-oxazolone: CUACUUCAAACGAUCGGUCUG [Fam1A.1 aminoacylation ribozyme variant]
Result string: 1.42

Query string: Lab note: need self-aminoacylation with biotinyl-Phe-oxazolone for entry AAGUUUGCUAAUAUUCGCAUG [Fam3.1 aminoacylation ribozyme variant] , please look it up.
Result string: 1.47

Query string: So what self-aminoacylation did CUACUUCCAACAAUCGGUCUG [Fam1A.1 aminoacylation ribozyme variant] get with biotinyl-Phe-oxazolone?
Result string: 1.11

Query string: Recall the recorded self-aminoacylation for AUUGACCUAGGUCAUCGGGUC [Fam2.2 aminoacylation ribozyme variant] with biotinyl-Phe-oxazolone and state it.
Result string: 3.83

Query string: Under biotinyl-Phe-oxazolone: self-aminoacylation value of AAGUUUGCUAAACGUCGCAAG [Fam3.1 aminoacylation ribozyme variant] ?
Result string: 0.887

Query string: Identify the measured self-aminoacylation of AGUACCCCGGUCAUCGAGUGA [Fam2.1 aminoacylation ribozyme variant] for biotinyl-Phe-oxazolone.
Result string: 43.9

Query string: Request body: readout self-aminoacylation, system biotinyl-Phe-oxazolone, query CUACUUCAAACAAUCGCUCUG [Fam1A.1 aminoacylation ribozyme variant] . Return the value.
Result string: 2.58

Query string: Quick check: self-aminoacylation on biotinyl-Phe-oxazolone, item AUUACCCUGGUGAUCGAGUGU [Fam2.1 aminoacylation ribozyme variant] ?
Result string: 5.19

Query string: Request: self-aminoacylation, test system biotinyl-Phe-oxazolone, entry AUUACCCUGGUCAUACAGUGA [Fam2.1 aminoacylation ribozyme variant]
Result string: 14.8

Query string: Request: self-aminoacylation, test system biotinyl-Phe-oxazolone, entry AAGUUCGCUAAUAGUCGAAAG [Fam3.1 aminoacylation ribozyme variant]
Result string: 4.18

Query string: Kindly state the measured self-aminoacylation obtained for AUUCACCUCGGUCAUCGGGUU [Fam2.2 aminoacylation ribozyme variant] with biotinyl-Phe-oxazolone.
Result string: 13.3

Query string: Recorded self-aminoacylation for AUUCACCUAGGUCGGCGGGUG [Fam2.2 aminoacylation ribozyme variant] with biotinyl-Phe-oxazolone, please?
Result string: 41.6

Query string: Checklist item: self-aminoacylation tested on biotinyl-Phe-oxazolone, entry CUACUUCAAACAAGCGGCCUG [Fam1A.1 aminoacylation ribozyme variant] , value?
Result string: 0.592

Query string: Item: CAACACUUCAAGCAAUCGGGC [Fam1B.1 aminoacylation ribozyme variant] Test system: biotinyl-Phe-oxazolone Read-out: self-aminoacylation Value: ?
Result string: 4.52

Query string: Give recorded self-aminoacylation with biotinyl-Phe-oxazolone for the following sequence: AUUACCCUGGUCUUCGGGUGA [Fam2.1 aminoacylation ribozyme variant]
Result string: 48.9

Query string: Value wanted: self-aminoacylation (biotinyl-Phe-oxazolone) of entry AUUGCCCUGGUCAUAGAGUGA [Fam2.1 aminoacylation ribozyme variant]
Result string: 57.9

Query string: # returns recorded self-aminoacylation (system: biotinyl-Phe-oxazolone) for CCAAACUUCAAGAAAUCGGUC [Fam1B.1 aminoacylation ribozyme variant]
Result string: 6.01

Query string: Please tell me: self-aminoacylation of AUUUCCCUGGUCUUCGAGUGA [Fam2.1 aminoacylation ribozyme variant] , system biotinyl-Phe-oxazolone?
Result string: 47.9

Query string: I'm curious: which self-aminoacylation was measured for AAGUUUGCUGAUAGUCUCAAG [Fam3.1 aminoacylation ribozyme variant] tested on biotinyl-Phe-oxazolone?
Result string: 1.94

Query string: Lab request: please report self-aminoacylation under test system biotinyl-Phe-oxazolone for GUUCGCCUAGGUCAUCGGGUG [Fam2.2 aminoacylation ribozyme variant]
Result string: 121

Query string: Provide the documented self-aminoacylation with biotinyl-Phe-oxazolone as the system for AAGUUUGCUAUGAGUCGCAAG [Fam3.1 aminoacylation ribozyme variant]
Result string: 0.664

Query string: Identify the measured self-aminoacylation of AUUCACCUAAGUCAUUGGGUG [Fam2.2 aminoacylation ribozyme variant] for biotinyl-Phe-oxazolone.
Result string: 20.5

Query string: Write down the reported self-aminoacylation of CUACGUCAAGCAAUCGGUCUG [Fam1A.1 aminoacylation ribozyme variant] , test system: biotinyl-Phe-oxazolone.
Result string: 1.88

Query string: Identify the measured self-aminoacylation of AUUGCCCUGGUCAUCGAGUUA [Fam2.1 aminoacylation ribozyme variant] for biotinyl-Phe-oxazolone.
Result string: 8.37

Query string: Notebook entry, biotinyl-Phe-oxazolone assay: self-aminoacylation of AUUACCCAGGUCAUCGAUUGA [Fam2.1 aminoacylation ribozyme variant] = ?
Result string: 0.642

Query string: What is its self-aminoacylation for biotinyl-Phe-oxazolone? Entry: CUCCUUCAAACUAUCGGUCUG [Fam1A.1 aminoacylation ribozyme variant]
Result string: 1.92

Query string: Lab request: please report self-aminoacylation under test system biotinyl-Phe-oxazolone for CUUACCGUGGUCAUCGAGUGA [Fam2.1 aminoacylation ribozyme variant]
Result string: 10.3

Query string: Find the measured self-aminoacylation: item AUAACCCUGGUCACCGAGUGA [Fam2.1 aminoacylation ribozyme variant] , target or system biotinyl-Phe-oxazolone.
Result string: 44

Query string: Please provide the recorded self-aminoacylation for AUACUUCAAACAAUCGGUCAG [Fam1A.1 aminoacylation ribozyme variant] , tested on biotinyl-Phe-oxazolone.
Result string: 3.2

Query string: API: value(readout=self-aminoacylation, system=biotinyl-Phe-oxazolone) for record AUUCACAUAGGUCGUCGGGUG [Fam2.2 aminoacylation ribozyme variant]
Result string: 7.92
